test_system: T1, full-length recombinant human PAD4 (human, UniProt Q9UM07 1-663)
T1 construct: Full-length recombinant; also called peptidylarginine deiminase 4
T1 sequence (Q9UM07 whole entry): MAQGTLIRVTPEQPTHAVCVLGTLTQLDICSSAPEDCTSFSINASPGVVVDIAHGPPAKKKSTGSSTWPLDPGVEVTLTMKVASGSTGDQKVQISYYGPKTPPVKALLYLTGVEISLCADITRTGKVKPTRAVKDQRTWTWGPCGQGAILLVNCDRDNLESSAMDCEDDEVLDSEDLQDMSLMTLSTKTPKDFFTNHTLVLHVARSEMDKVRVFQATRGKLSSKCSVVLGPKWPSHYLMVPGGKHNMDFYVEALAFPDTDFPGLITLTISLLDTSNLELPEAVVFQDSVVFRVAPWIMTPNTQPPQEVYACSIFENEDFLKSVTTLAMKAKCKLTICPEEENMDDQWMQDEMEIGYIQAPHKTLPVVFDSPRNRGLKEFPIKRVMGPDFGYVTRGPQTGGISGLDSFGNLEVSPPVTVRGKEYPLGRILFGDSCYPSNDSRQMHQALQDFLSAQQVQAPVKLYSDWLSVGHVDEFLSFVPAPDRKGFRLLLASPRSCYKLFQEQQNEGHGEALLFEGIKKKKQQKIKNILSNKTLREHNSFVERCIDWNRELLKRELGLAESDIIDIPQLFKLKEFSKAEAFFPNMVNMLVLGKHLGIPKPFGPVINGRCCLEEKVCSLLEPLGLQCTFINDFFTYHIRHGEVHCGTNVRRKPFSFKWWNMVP
assay_procedure: ELISA, coated human PAD4; antibody 6.104E-05 ug/mL
Listed binders paired with reported OD 490/630 nm
Respond using a number only.

A11 (antibody, V domains shown, Chicken variable regions in a mouse chimeric antibody (IgG1); also called anti-PAD4 antibody A11) VH: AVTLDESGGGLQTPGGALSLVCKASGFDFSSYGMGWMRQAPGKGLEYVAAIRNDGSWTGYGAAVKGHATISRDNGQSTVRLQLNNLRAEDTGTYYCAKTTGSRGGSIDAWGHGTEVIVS VL: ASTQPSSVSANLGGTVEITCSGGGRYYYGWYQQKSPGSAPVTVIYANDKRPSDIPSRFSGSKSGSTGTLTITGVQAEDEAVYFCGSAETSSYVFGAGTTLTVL
0.063
H7 (antibody, V domains shown, Chicken variable regions in a mouse chimeric antibody (IgG1); also called anti-PAD4 antibody H7) VH: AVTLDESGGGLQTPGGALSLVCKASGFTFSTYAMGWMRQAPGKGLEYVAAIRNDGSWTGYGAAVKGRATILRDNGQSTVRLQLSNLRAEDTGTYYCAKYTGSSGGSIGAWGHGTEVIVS VL: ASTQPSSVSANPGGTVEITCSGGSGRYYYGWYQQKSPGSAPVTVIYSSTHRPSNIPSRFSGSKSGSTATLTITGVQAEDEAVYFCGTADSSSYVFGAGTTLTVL
0.111
G6 (antibody, V domains shown, Chicken variable regions in a mouse chimeric antibody (IgG1); also called anti-PAD4 antibody G6) VH: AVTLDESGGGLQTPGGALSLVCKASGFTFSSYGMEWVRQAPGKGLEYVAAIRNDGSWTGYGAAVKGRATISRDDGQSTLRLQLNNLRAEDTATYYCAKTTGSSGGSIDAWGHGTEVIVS VL: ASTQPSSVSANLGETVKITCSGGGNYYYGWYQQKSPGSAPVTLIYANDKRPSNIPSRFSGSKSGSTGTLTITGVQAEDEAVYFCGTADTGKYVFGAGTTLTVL
0.075
G8 (antibody, V domains shown, Chicken variable regions in a mouse chimeric antibody (IgG1); also called anti-PAD4 antibody G8) VH: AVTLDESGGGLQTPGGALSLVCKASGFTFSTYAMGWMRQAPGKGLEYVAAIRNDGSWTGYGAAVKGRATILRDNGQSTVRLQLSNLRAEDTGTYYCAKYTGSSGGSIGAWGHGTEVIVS VL: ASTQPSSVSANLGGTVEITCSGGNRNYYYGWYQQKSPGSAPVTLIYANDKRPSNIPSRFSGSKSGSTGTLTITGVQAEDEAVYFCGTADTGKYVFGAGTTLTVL
0.1
E9 (antibody, V domains shown, Chicken variable regions in a mouse chimeric antibody (IgG1); also called anti-PAD4 antibody E9) VH: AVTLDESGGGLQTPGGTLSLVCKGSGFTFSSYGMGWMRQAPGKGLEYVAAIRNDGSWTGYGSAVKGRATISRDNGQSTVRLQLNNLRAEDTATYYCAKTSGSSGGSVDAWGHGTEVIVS VL: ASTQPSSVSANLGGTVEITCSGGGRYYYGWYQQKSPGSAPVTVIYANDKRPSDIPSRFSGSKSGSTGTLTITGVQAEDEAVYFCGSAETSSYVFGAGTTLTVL
0.07

Incoming: For the binder G9 (antibody, V domains shown, Chicken variable regions in a mouse chimeric antibody (IgG1); also called anti-PAD4 antibody G9) VH: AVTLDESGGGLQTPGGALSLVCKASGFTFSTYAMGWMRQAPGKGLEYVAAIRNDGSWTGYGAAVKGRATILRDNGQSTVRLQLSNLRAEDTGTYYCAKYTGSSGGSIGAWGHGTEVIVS VL: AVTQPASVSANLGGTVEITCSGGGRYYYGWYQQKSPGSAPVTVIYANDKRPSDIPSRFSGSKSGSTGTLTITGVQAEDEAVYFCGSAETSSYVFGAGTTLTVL , what OD 490/630 nm is on record?
Outgoing: 0.082
